Reported inhibition at 5 min, 10 µM values follow for various compounds
Biological target: hERG (KCNH2) (Homo sapiens, UniProt Q12809)
Sequence (Q12809 whole entry): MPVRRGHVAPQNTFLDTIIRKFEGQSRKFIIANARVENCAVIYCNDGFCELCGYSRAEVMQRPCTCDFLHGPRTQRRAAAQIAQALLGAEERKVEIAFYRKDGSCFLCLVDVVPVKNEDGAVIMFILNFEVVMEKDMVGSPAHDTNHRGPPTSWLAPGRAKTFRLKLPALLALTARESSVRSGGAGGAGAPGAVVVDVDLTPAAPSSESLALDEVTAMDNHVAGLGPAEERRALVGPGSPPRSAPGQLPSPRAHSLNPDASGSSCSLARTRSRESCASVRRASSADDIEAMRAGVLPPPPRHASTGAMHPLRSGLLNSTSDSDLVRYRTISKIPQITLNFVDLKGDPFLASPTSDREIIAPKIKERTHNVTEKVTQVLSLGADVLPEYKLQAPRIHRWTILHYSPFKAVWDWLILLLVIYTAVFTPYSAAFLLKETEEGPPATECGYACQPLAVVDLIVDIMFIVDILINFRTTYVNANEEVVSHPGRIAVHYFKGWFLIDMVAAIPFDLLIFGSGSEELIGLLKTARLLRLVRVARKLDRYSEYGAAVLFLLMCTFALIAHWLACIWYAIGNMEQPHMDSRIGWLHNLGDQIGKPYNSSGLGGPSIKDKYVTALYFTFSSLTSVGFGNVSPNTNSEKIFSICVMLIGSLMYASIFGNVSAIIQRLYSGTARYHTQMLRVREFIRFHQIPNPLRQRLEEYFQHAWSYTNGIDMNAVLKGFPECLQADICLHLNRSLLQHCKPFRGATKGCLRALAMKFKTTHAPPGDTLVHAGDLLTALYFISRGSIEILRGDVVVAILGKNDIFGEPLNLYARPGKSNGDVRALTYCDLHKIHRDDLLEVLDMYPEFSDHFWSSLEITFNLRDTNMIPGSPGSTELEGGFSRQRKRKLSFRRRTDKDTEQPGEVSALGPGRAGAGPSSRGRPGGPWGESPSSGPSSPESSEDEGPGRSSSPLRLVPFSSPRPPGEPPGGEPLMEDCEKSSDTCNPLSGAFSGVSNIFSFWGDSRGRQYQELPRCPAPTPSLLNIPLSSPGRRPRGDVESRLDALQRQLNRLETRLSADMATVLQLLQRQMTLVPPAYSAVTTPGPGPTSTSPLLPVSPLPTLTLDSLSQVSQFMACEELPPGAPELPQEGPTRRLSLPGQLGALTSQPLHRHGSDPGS
Assay: Inhibition of human ERG expressed in HEK293 cells at 10 uM after 5 mins at -80 mV holding potential by patch clamp assay
Format: cell-based
Conditions: HEK293 cells expressing human ERG
Answer with a number only, understood to be in %.

Incoming: What reported inhibition at 5 min, 10 µM corresponds to COc1ccc2c(c1)CN(C(=O)N1CCN(Cc3ccc4c(c3)OCO4)CC1)CCS2 on hERG (KCNH2) (Homo sapiens, UniProt Q12809)?
Outgoing: 78

Incoming: hERG (KCNH2) (Homo sapiens, UniProt Q12809) / inhibition at 5 min, 10 µM / O=C(NO)N1CCSc2ccccc2C1 : value?
Outgoing: 9.5

* * *

pEC50: recorded values
Molecular target: Ryanodine receptor 2 (Homo sapiens)
Assay: Induction of FKBP12.6 re-binding to PKA-phosphorylated-RyR2 (unknown origin) after 30 mins in presence of [35S]-FKBP12.6 by liquid scintillation counting
Field pEC50 (float): negative decimal logarithm of the concentration in molar.

Below: 3 compounds and their reported pEC50.
query_smiles=COc1ccc2c(c1)CN(S(=O)(=O)Nc1cccnc1)CCS2 target_entity="Ryanodine receptor 2 (Homo sapiens)" measurement_name=pEC50 reported_value=7.11
query_smiles=c1ccc2c(c1)CNCCS2 target_entity="Ryanodine receptor 2 (Homo sapiens)" measurement_name=pEC50 reported_value=7.00
query_smiles=COc1ccc2c(c1)CN([P@@](=O)(OC)c1ccccc1)CCS2 target_entity="Ryanodine receptor 2 (Homo sapiens)" measurement_name=pEC50 reported_value=6.76

Incoming: pEC50 lookup needed for COc1ccc2c(c1)CN([P@](=O)(OC)c1ccccc1)CCS2 , thanks.
Outgoing: 6.74

Incoming: Need pEC50, item C=CC(=O)N1CCSc2ccc(OC)cc2C1
Outgoing: 7.30

* * *

Target: hERG (KCNH2) (Homo sapiens)
Assay: Inhibition of human ERG expressed in HEK293 cells at 1 uM after 5 mins at -80 mV holding potential by patch clamp assay
Assay type: cell-based
Conditions: HEK293 cells expressing human ERG
Quick rule: inhibition at 5 min, 1 µM of at least 4% means TRUE, below that means FALSE.

compound=O=C(O)C(=O)N1CCSc2ccccc2C1 target_entity="hERG (KCNH2) (Homo sapiens)" cat=FALSE
compound=COc1ccc2c(c1)CN(C)CCS2 target_entity="hERG (KCNH2) (Homo sapiens)" cat=TRUE
compound=COc1ccc2c(c1)CN(C(=O)N1CCCCC1)CCS2 target_entity="hERG (KCNH2) (Homo sapiens)" cat=TRUE
compound=O=C(NO)N1CCSc2ccccc2C1 target_entity="hERG (KCNH2) (Homo sapiens)" cat=FALSE
compound=COc1ccc2c(c1)CN(C(=O)C(=O)O)CCS2(=O)=O target_entity="hERG (KCNH2) (Homo sapiens)" cat=TRUE
compound=COc1ccc2c(c1)CN(C(=O)N1CCN(Cc3ccc4c(c3)OCO4)CC1)CCS2 target_entity="hERG (KCNH2) (Homo sapiens)" cat=TRUE

Incoming: Test whether the compound O=C(N1CCCCC1)N1CCSc2ccccc2C1 records inhibition at 5 min, 1 µM of 4% or higher.
Outgoing: TRUE

Incoming: Evaluate COC(=O)C(=O)N1CCSc2ccc(OC)cc2C1 : inhibition at 5 min, 1 µM at minimum 4%?
Outgoing: FALSE

Incoming: Is inhibition at 5 min, 1 µM at least 4%? Consider COc1ccc2c(c1)CN(C(=O)C(=O)O)CCS2 [ALADORIAN SODIUM]
Outgoing: TRUE

* * *

Biological target: hERG (KCNH2) (Homo sapiens, UniProt Q12809)
Assay: Inhibition of human ERG expressed in HEK293 cells at 0.01 uM after 5 mins at -80 mV holding potential by patch clamp assay
Type: cell-based
Conditions: HEK293 cells expressing human ERG
Use condition met when the recorded inhibition at 5 min, 0.01 µM is no lower than 2%; use condition not met when it is lower.

Please review the following examples before continuing.
compound=COC(=O)C(=O)N1CCSc2ccc(OC)cc2C1 cat="condition not met"
compound=COc1ccc2c(c1)CN(C(=O)N1CCN(Cc3ccc4c(c3)OCO4)CC1)CCS2 cat="condition met"
compound=COc1ccc2c(c1)CN(C)CCS2 cat="condition met"
compound=COc1ccc2c(c1)CN(C(=O)N1CCCCC1)CCS2 cat="condition not met"
compound="COc1ccc2c(c1)CN(C(=O)C(=O)O)CCS2 [ALADORIAN SODIUM]" cat="condition not met"

Incoming: Has O=C(NO)N1CCSc2ccccc2C1 a recorded inhibition at 5 min, 0.01 µM greater than or equal to 2%?
Outgoing: condition not met

Incoming: Hi, just wondering whether O=C(N1CCCCC1)N1CCSc2ccccc2C1 shows inhibition at 5 min, 0.01 µM of 2% or higher.
Outgoing: condition met

Incoming: Quick check, inhibition at 5 min, 0.01 µM >= 2%? COc1ccc2c(c1)CN(C(=O)c1ccc(N=[N+]=[N-])cc1O)CCS2
Outgoing: condition not met

Incoming: Answer whether inhibition at 5 min, 0.01 µM of COc1ccc2c(c1)CN(C(=O)C(=O)O)CCS2(=O)=O is greater than or equal to 2%.
Outgoing: condition not met

Incoming: In plain terms: is recorded inhibition at 5 min, 0.01 µM at least 2% for O=C(O)C(=O)N1CCSc2ccccc2C1 ?
Outgoing: condition not met

* * *

Target: hERG (KCNH2) (Homo sapiens)
Test: Inhibition of human ERG expressed in HEK293 cells at 10 uM after 5 mins at -80 mV holding potential by patch clamp assay
Type: cell-based
Settings: HEK293 cells expressing human ERG
Each entry below carries its recorded inhibition at 5 min, 10 µM.
Give me the value, and tack the unit on after it.

Sample answers from the record:
compound="COc1ccc2c(c1)CN(C(=O)C(=O)O)CCS2 [ALADORIAN SODIUM]" measurement_name="inhibition at 5 min, 10 µM" reported_value=6.7%
compound=COc1ccc2c(c1)CN(C(=O)c1ccc(N=[N+]=[N-])cc1O)CCS2 measurement_name="inhibition at 5 min, 10 µM" reported_value=14%
compound=O=C(N1CCCCC1)N1CCSc2ccccc2C1 measurement_name="inhibition at 5 min, 10 µM" reported_value=47.3%
compound=O=C(O)C(=O)N1CCSc2ccccc2C1 measurement_name="inhibition at 5 min, 10 µM" reported_value=4.1%
compound=COc1ccc2c(c1)CN(C(=O)N1CCCCC1)CCS2 measurement_name="inhibition at 5 min, 10 µM" reported_value=24.2%
compound=COc1ccc2c(c1)CN(C)CCS2 measurement_name="inhibition at 5 min, 10 µM" reported_value=32.1%
compound=COc1ccc2c(c1)CN(C(=O)C(=O)O)CCS2(=O)=O measurement_name="inhibition at 5 min, 10 µM" reported_value=7.4%

Now examine the next entry.
Incoming: Form: Entry = COC(=O)C(=O)N1CCSc2ccc(OC)cc2C1 | System = hERG (KCNH2) (Homo sapiens) | inhibition at 5 min, 10 µM = ____
Outgoing: 13.6%

Attribution: ChEMBL document CHEMBL3880390
